Overview of recorded Proliferation assay HELA TD50 for various compounds
test system: HeLa cells; experiment: HeLa Proliferation assay (CellTiter Glo); format: cell-based; details: 72 hours
property label: Proliferation assay HELA TD50 (µM)

[[record]]
smiles_input = "COc1cc(-c2nc(O)c(O)c(C(=O)N[C@H](C)C3CCCCC3)n2)nc2ccccc12"
experimental_target = "HeLa cells"
operator = "="
measurement = 5.7007

[[record]]
smiles_input = "O=C(OC1CCCCC1)c1nc(-c2ccccn2)nc(O)c1O"
experimental_target = "HeLa cells"
operator = ">"
measurement = 50

[[record]]
smiles_input = "O=C(NC1(C2CCCCC2)CC1)c1nc(-c2ccccn2)nc(O)c1O"
experimental_target = "HeLa cells"
operator = "="
measurement = 1.5131

[[record]]
smiles_input = "C[C@@H](NC(=O)c1nc(-c2ccc3ccccc3n2)nc(O)c1O)C1CCCCC1"
experimental_target = "HeLa cells"
operator = "="
measurement = 2.8446

[[record]]
smiles_input = "C[C@@H](NC(=O)c1nc(-c2ncccc2Cl)nc(O)c1O)C1CCCCC1"
experimental_target = "HeLa cells"
operator = "="
measurement = 6.8148

[[record]]
smiles_input = "C[C@@H](NC(=O)c1nc(-c2ccc(N)cn2)nc(O)c1O)C1CCCCC1"
experimental_target = "HeLa cells"
operator = "="
measurement = 0.6864

[[record]]
smiles_input = "O=C(NC1CCCCC1)c1nc(-c2ccccn2)nc(O)c1O"
experimental_target = "HeLa cells"
operator = "="
measurement = 8.1353

[[record]]
smiles_input = "O=C(NCC1CCCCC1)c1nc(-c2ccccn2)nc(O)c1O"
experimental_target = "HeLa cells"
operator = "="
measurement = 3.5857

[[record]]
smiles_input = "O=C(NCC1CC1)c1nc(-c2ccccn2)nc(O)c1O"
experimental_target = "HeLa cells"
operator = ">"
measurement = 50

